target: CDK19/CycC (Homo sapiens); assay: LanthaScreen europium kinase binding assay (FRET displacement), CDK19; details: his-tagged CDK19/CycC 5 nM, tracer 10 nM, 3 h incubation
Sequence (Q9BWU1 whole entry): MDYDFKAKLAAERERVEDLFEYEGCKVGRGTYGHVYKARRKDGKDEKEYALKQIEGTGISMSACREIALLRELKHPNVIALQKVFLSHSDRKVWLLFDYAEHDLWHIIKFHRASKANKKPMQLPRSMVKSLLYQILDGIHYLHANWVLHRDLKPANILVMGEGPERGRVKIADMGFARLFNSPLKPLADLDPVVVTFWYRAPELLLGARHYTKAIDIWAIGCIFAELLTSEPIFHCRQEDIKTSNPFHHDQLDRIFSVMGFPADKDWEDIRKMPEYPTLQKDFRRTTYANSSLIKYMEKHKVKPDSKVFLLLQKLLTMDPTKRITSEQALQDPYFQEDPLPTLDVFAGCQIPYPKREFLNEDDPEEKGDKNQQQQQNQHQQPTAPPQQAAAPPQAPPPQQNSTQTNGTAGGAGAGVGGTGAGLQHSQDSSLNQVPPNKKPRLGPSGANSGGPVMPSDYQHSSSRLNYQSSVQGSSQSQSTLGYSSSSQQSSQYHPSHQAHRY
Sequence (P24863 whole entry partner): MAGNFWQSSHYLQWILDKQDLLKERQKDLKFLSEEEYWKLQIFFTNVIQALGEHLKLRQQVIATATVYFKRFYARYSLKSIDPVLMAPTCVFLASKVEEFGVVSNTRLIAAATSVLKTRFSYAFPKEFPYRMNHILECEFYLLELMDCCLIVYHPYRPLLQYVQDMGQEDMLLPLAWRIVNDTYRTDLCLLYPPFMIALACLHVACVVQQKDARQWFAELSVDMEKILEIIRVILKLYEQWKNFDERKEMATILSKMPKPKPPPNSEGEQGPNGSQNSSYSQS
pIC50: −log10 of the molar value.
Lab note: anything with pIC50 at or over 6 counts as 1; the rest go in 0.

See these solved cases before continuing.
| COMPOUND | CATEGORY_LABEL |
| --- | --- |
| FC(F)(F)Oc1ccc(Nc2ncc(Nc3ccncc3)cn2)cc1 | 1 |
| CC(C)Oc1ccc(Nc2ncc(Nc3ccncc3C(F)(F)F)cn2)cc1 | 1 |

Say whether CC(C)Cc1ccc(Nc2ccc(Nc3ccncc3)cn2)cc1 shows pIC50 of 6 or more.
1

Say whether COc1cc(CC(C)C)ccc1Nc1ncc(Nc2ccncc2)cn1 shows pIC50 of 6 or more.
1

Say whether CC(C)Cc1ccc(Nc2ncc(Nc3cc(F)ncc3F)cn2)cc1 shows pIC50 of 6 or more.
1
